Source listed as patent US20230027026A1.

target system: EGFR(D770_N771insSVD) expressing Ba/F3 stable cell line (Homo sapiens, UniProt P00533, DUP768-770, cells depend on it)
Sequence (P00533 with tags, fused parts or gaps DUP768-770): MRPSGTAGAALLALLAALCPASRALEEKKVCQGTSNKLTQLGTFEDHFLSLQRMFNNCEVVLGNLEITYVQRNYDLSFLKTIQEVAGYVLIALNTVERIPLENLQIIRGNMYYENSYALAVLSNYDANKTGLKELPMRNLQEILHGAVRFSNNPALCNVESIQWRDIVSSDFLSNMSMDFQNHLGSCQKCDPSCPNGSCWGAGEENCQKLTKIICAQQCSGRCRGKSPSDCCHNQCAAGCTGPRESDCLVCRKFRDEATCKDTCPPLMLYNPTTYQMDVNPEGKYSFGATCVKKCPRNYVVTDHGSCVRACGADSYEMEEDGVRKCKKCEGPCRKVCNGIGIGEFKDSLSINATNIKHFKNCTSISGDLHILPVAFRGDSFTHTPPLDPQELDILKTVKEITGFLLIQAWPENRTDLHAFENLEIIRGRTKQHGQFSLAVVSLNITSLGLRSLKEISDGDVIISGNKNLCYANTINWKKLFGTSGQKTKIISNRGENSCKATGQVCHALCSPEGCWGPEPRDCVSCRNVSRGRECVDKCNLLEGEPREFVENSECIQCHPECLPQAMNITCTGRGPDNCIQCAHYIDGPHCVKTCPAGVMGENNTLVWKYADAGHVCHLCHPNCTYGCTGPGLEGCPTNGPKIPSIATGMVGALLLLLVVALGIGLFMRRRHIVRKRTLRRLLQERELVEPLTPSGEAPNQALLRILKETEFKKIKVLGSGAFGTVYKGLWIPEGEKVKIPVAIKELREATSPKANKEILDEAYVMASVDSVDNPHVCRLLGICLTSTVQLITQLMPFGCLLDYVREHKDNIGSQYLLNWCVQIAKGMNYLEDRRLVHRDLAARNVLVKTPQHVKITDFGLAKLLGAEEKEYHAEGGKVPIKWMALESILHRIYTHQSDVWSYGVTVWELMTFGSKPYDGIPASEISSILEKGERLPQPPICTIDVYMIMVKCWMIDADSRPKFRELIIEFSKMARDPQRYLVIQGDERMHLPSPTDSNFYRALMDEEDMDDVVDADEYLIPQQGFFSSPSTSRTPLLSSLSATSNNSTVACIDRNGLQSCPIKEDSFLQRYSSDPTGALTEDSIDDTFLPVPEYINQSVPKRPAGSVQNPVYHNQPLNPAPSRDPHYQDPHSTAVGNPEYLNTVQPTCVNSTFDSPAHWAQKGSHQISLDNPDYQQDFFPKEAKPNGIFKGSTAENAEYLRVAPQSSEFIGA
protocol description: Cellular proliferation (Alamar Blue) assay, EGFR D770_N771insSVD Ba/F3
Assay type: cell-based
setup conditions: EGFR D770_N771insSVD Ba/F3, 72 hr, read-out: D770 IC50
measured property: GI50 (nM)

P = CN(C)C/C=C/C(=O)Nc1cccc(N2C(=O)N(Cc3ccccc3)Cc3cnc(Nc4cn(CC(F)F)nc4Cl)nc32)c1
Q = CN(C)C/C=C/C(=O)Nc1cccc(N2C(=O)N(Cc3ccccc3)Cc3cnc(Nc4ccc5c(c4)ncn5C)nc32)c1
-- ask Record comparison, field GI50: mark the lower of P and Q . Refer to your chosen entry by its label in the reply.
-- reply P

====

target system: EGFR (A767_dupASV) expressing Ba/F3 stable cell line (Homo sapiens, UniProt P00533, DUP767-769, cells depend on it)
Sequence (P00533 with tags, fused parts or gaps DUP767-769): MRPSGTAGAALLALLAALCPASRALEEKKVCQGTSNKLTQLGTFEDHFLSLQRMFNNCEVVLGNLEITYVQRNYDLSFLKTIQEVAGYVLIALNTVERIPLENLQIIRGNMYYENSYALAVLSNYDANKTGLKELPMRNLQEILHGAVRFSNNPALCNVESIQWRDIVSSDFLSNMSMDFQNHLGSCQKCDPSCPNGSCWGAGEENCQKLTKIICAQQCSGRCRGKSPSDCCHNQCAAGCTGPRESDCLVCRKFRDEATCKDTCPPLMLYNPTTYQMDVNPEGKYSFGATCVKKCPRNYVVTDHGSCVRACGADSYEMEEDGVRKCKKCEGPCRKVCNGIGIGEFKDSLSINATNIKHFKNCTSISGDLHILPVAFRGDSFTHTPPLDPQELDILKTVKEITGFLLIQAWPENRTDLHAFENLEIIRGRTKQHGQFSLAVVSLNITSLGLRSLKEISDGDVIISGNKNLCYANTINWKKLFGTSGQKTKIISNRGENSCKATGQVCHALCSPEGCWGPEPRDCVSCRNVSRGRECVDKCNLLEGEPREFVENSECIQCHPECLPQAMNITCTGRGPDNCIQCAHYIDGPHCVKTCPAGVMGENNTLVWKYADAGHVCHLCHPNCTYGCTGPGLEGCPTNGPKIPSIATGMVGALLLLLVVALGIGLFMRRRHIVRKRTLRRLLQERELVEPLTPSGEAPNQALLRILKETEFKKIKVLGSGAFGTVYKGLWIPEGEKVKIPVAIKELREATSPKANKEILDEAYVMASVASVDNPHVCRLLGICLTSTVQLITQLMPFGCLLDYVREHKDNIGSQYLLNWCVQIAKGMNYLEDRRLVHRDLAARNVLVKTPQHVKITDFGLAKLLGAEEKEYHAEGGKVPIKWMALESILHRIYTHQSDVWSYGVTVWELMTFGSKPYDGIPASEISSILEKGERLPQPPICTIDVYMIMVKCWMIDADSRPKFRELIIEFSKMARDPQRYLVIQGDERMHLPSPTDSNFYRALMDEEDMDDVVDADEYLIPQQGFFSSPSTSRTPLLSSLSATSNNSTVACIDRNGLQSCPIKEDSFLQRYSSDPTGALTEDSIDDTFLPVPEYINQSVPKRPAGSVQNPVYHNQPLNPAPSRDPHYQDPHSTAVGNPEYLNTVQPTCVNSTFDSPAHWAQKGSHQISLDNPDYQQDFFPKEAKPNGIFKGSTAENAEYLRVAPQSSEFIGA
protocol description: Cellular proliferation (Alamar Blue) assay, EGFR A767_dupASV Ba/F3
Format: cell-based
setup conditions: EGFR A767_dupASV Ba/F3, 72 hr, read-out: A767 IC50
Excerpt: Example 3: Cellular Proliferation (Alamar Blue) Assays • 1. EGFR(D770_N771insSVD) expressing Ba/F3 stable cell line • 2. EGFR (A767_dupASV) expressing Ba/F3 stable cell line • 3. A431 cells • 4. BTER2 (A775_G776insYVMA) expressing Ba/F3 stable cell line • 5. BTER2 (WT) expressing Ba/F3 stable cell line • 6. BT-474 cells • 1. […] Read plates on fluorescence reader (Tecan Spark Control, Device: Spark, Serial #: 1801006040) at 540 nm excitation, 590 nm emission wavelength. • 5. […]
measured property: GI50 (µM)

P = CN(C)C/C=C/C(=O)Nc1cccc(N2C(=O)N(Cc3ccccc3)Cc3cnc(Nc4cnn5cccnc45)nc32)c1
Q = CN(C)C/C=C/C(=O)Nc1cccc(N2C(=O)N(Cc3ccccc3)Cc3cnc(Nc4ccc5c(c4)cc(C#N)n5C)nc32)c1
R = Cn1cc(Nc2ncc3c(n2)N(c2cccc(NC(=O)/C=C/CN4CCCCC4)c2)C(=O)N(c2ccccc2)C3)c(Cl)n1
-- ask List the molecules shown above again, sorted by falling GI50 values. Please, when replying, give the labels in the order that was requested.
-- reply P, Q, R

====

target system: EGFR (A767_dupASV) expressing Ba/F3 stable cell line (Homo sapiens, UniProt P00533, DUP767-769, cells depend on it)
protocol description: Cellular proliferation (Alamar Blue) assay, EGFR A767_dupASV Ba/F3
Format: cell-based
setup conditions: EGFR A767_dupASV Ba/F3, 72 hr, read-out: A767 IC50
measured property: GI50 (nM)

A = COc1cc(CN2Cc3cnc(Nc4cn(C)nc4Cl)nc3N(c3cccc(NC(=O)/C=C/CN(C)C)c3)C2=O)ccn1
B = CN(C)C/C=C/C(=O)NC1CCCC(N2C(=O)N(Cc3ccccc3)Cc3cnc(Nc4cn(C)nc4Cl)nc32)C1 (stereo not shown)
-- ask Sorting ascending by GI50, which comes first: A or B ? Refer to your chosen entry by its label in the reply.
-- reply A

====

target system: EGFR(D770_N771insSVD) expressing Ba/F3 stable cell line (Homo sapiens, UniProt P00533, DUP768-770, cells depend on it)
protocol description: Cellular proliferation (Alamar Blue) assay, EGFR D770_N771insSVD Ba/F3
Assay type: cell-based
setup conditions: EGFR D770_N771insSVD Ba/F3, 72 hr, read-out: D770 IC50
measured property: GI50 (nM)

Look over these answered cases.
-- ask If you can, please state the reported GI50 value of "COCCn1cc(Nc2ncc3c(n2)N(c2cccc(NC(=O)/C=C/CN(C)C)c2)C(=O)N(Cc2ccccc2)C3)c(Cl)n1" .
-- reply 228

-- ask Looking for the measured GI50 of "CN(C)C/C=C/C(=O)Nc1cccc(N2C(=O)N(Cc3ccccc3)Cc3cnc(Nc4cnn5cccnc45)nc32)c1" , can you help?
-- reply 1850

-- ask What measured GI50 goes with C=CC(=O)NC1CCCC(N2C(=O)N(Cc3ccccc3)Cc3cnc(Nc4cn(C)nc4Cl)nc32)C1 (stereo not shown) ?
-- reply 1870

-- ask Would you mind telling me what GI50 value was observed for "CN(C)C/C=C/C(=O)N(C)c1cccc(N2C(=O)N(Cc3ccccc3)Cc3cnc(Nc4cnn(C)c4)nc32)c1" ?
-- reply 3350

-- ask Field request: GI50 | item: "C=CC(=O)Nc1cc(N2C(=O)N(Cc3ccccc3)Cc3cnc(Nc4cn(C)nc4Cl)nc32)ccc1OC(F)(F)F"
-- reply 8780

I = CN(C)C/C=C/C(=O)Nc1cccc(N2C(=O)N(Cc3ccccc3)Cc3cnc(Nc4ccc5c(cnn5C)c4)nc32)c1
II = CN(C)C/C=C/C(=O)Nc1cccc(N2C(=O)N(c3ccc(F)cc3)Cc3cnc(Nc4cnn(C)c4)nc32)c1
-- ask Compare I and II by numeric GI50 and name the larger one. Return value: the label identifying the chosen record.
-- reply II
